B1: CDC14A (parent)
chain: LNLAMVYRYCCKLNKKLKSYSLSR

variants of: B1; assay: protein stability index of a GFP-peptide fusion (GPS, HEK-293T) (PSI 1-6); higher = more stable; settings: c terminus: a fixed tail appended;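 note: lentivirally expressed fusions sorted by FACS into six bins by GFP to DsRed ratio, PSI derived from sequencing read proportions per bin multiplied by bin number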
endpoint: protein stability index
Answers are plain numbers.

// solved cases for protein stability index follow
Y7H 2.68
K18P 2.5
S21G 2.26
L3M 2.88
L3F 3.38

For the 4 variants below, give their protein stability index values.
1. S19G
2. Y9R
3. A4G
4. S21V

Reply text:
2.5
2.03
3.33
4.29

For the 7 variants below, give their protein stability index values.
1. C10W
2. S23G
3. V6N
4. K16R
5. R24K
6. R24V
7. S23W

Reply text:
3.64
2.2
1.63
3.33
2.13
3.52
3.77

For the 5 variants below, give their protein stability index values.
1. S21N
2. L17D
3. S23C
4. R24I
5. K15T

Reply text:
[2.51, 2.14, 2.49, 3.79, 2.62]

Inquiry: Need protein stability index of L22A , thanks.
Reply text: 4.08

The values you see were collected from the supplement of paper PMC10567573.
